Tested on: A375
test-protocol: Single agent proliferation assay (CellTiter-Glo, 72 h)
Type: cell-based, human
particulars: A375, 72 h
measured-attribute: IC50
Give the number first and the unit second.

Endpoint output: IC50 of N#Cc1c(Oc2ccc(F)c(NC(=O)Cc3cccc(C(F)(F)F)c3)c2)ccc2nc(NC(=O)C3CC3)sc12 [TAK-632] . Value?
26 nM
